Reference source: ChEMBL document CHEMBL1201862

tested on: XF498; assay: NCI tumour cell line growth inhibition, 48 h
Active and inactive are the calls of the source. No stated cut-off is given here; in the data, active = GI50 up to about 1.1 µM and inactive = higher.
Classes used: yes (1) for active, no (0) for inactive

[[record]]
compound = "COc1ccc(C=C2C(=O)OC(C)(C)OC2=O)cc1OC"
label = "no (0)"

[[record]]
compound = "CC1=C(C(=O)CC(=O)C(=O)Nc2ccccc2C(F)(F)F)Sc2ccccc2N1"
label = "no (0)"

[[record]]
compound = "O=C1C[C@@H]2[C@@H](c3ccccc3)[C@@H]3C(=O)c4ccccc4NC(=O)[C@H]3[C@]2(O)c2ccccc2N1"
label = "no (0)"

[[record]]
compound = "N#CC(c1ccccc1)c1nc2ccc(N)cc2[n+]([O-])c1C(C#N)c1ccccc1 (stereo not drawn)"
label = "no (0)"

[[record]]
compound = "CC(=O)ON(C(C)=O)C1C(COC(c2ccccc2)(c2ccccc2)c2ccccc2)OC2OC3(CCCC3)OC21 (stereo not drawn)"
label = "no (0)"

[[record]]
compound = "O=S(=O)(SCc1ccccc1)C(c1ccccc1)c1ccccc1"
label = "no (0)"

[[record]]
compound = "NC(=O)/C(=N\\NC(=O)C[n+]1ccccc1)C1NC(=O)NC1=O (stereo not drawn)"
label = "no (0)"

[[record]]
compound = "CCOC(=O)NC1C2CC(=O)C(O2)C1OCc1ccccc1 (stereo not drawn)"
label = "no (0)"

[[record]]
compound = "CCN(CC)CCOc1ccc(/C=C(\\C#N)c2ccc(OCCN(CC)CC)cc2)cc1"
label = "no (0)"

[[record]]
compound = "O=C(O)CCCc1ccc(N(CCCl)CCCl)cc1 [CHLORAMBUCIL]"
label = "no (0)"

[[record]]
compound = "Cc1ccccc1/N=N/c1c(-c2ccccc2)nn(C(=O)CC(=O)Nc2cccc(Cl)c2)c1-c1ccccc1"
label = "no (0)"

[[record]]
compound = "CCOC(=O)c1ccc(/N=N/c2cc(C(=O)OCC)ccc2O)cc1"
label = "no (0)"

[[record]]
compound = "COc1ccc2c(c1)C(=O)c1ccc(OC)cc1C2=S"
label = "no (0)"

[[record]]
compound = "CCN1C(=O)/C(=C\\c2coc3ccccc3c2=O)SC1=S"
label = "no (0)"

[[record]]
compound = "Cc1cc(NS(=O)(=O)c2ccc(Nc3c4ccccc4nc4c(C(=O)N5CCN(CCO)CC5)cccc34)cc2)no1"
label = "no (0)"

[[record]]
compound = "CCN(CC)CC(C)(C)C(=O)/C=C/c1cccc(/C=C/C(=O)C(C)(C)CN(CC)CC)c1"
label = "yes (1)"

[[record]]
compound = "CC(C)(C)[Si](OC1CC(n2cnc3c(N)ncnc32)OC1CO)(c1ccccc1)c1ccccc1 (stereo not drawn)"
label = "no (0)"

[[record]]
compound = "COc1cc(=O)oc(/C=C/CO)c1C"
label = "no (0)"

[[record]]
compound = "CC(=O)O[C@H]1CCC2[C@@H]3CCC4=C(O)c5nocc5C[C@]4(C)C3CC[C@@]21C (stereo partly drawn)"
label = "no (0)"

[[record]]
compound = "COc1nc2c(nc(N)n2C2OC(CO)C(O)C(O)C2O)c(=O)[nH]1 (stereo not drawn)"
label = "no (0)"

[[record]]
compound = "CNC(=O)CN(CC(N)=O)C(=O)NC"
label = "no (0)"

[[record]]
compound = "O=Cc1cc2sc(C=O)cc2s1"
label = "no (0)"

[[record]]
compound = "CC(=O)CC(=O)Nc1ccccc1[N+](=O)[O-]"
label = "no (0)"

[[record]]
compound = "CC1=C(C(=O)CC(=O)C(=O)Nc2cc(C)ccc2C)Sc2ccccc2N1"
label = "no (0)"

[[record]]
compound = "COc1ccc(CC2c3c(cc(OC)c(OC)c3OC)CCN2C)cc1OC (stereo not drawn)"
label = "no (0)"

[[record]]
compound = "S=C1OC2CCCC[C@H]2O1 (stereo partly drawn)"
label = "no (0)"

[[record]]
compound = "S=c1sc2c(Cl)ncnc2n1-c1ccccc1"
label = "no (0)"

[[record]]
compound = "COC1C=C(Nc2cccc(Cl)c2)C(=O)C1 (stereo not drawn)"
label = "no (0)"

[[record]]
compound = "O=C(O)CC(O)(c1ccccc1C(=O)O)c1cccc2ccccc12 (stereo not drawn)"
label = "no (0)"

[[record]]
compound = "[O-][S+]1c2ccccc2NC(c2ccc3ccccc3c2)CC1c1ccccc1 (stereo not drawn)"
label = "no (0)"

[[record]]
compound = "COC(=O)C(CC(=O)c1ccccc1)c1ccccc1NC(C)=O (stereo not drawn)"
label = "no (0)"

[[record]]
compound = "Cc1cc(-c2ccccc2)nc(Nc2nc3ccccc3o2)n1"
label = "no (0)"

[[record]]
compound = "O=C(Cc1ccccc1F)NC1=C(Cl)C(=O)c2ccccc2C1=O"
label = "yes (1)"

[[record]]
compound = "O=C(O)c1ccccc1NS(=O)(=O)c1ccc(Cl)cc1"
label = "no (0)"

[[record]]
compound = "CN1C/C(=C\\c2ccco2)c2nc(N)nc(-c3ccco3)c2C1"
label = "no (0)"

[[record]]
compound = "CN(C)c1ccc(/C=C2\\N=C(c3ccc(N)cc3)OC2=O)cc1"
label = "no (0)"

[[record]]
compound = "CC(=O)NNc1nc(C)c(C(=O)NNC(=O)C(=O)Nc2nc3ccc([N+](=O)[O-])cc3s2)s1"
label = "no (0)"

[[record]]
compound = "c1cc2nnsc2s1"
label = "no (0)"


###

system: OVCAR-8; experiment: NCI tumour cell line growth inhibition, 48 h
Calls of active or inactive are those of the source. Cut-off read from the data, not from the text of the source: active = GI50 up to about 1.1 µM and inactive = higher.
Measured GI50 values are reported for all entries that follow.
REPORTED_ENDPOINT: GI50

[[record]]
compound = "C=C1C(=O)O[C@H]2[C@H]1[C@H](OC(=O)/C(C)=C\\C)CC(=C)[C@@H]1[C@H](O)[C@H]3O[C@@]3(C)[C@@]12O"
result = "> 100 µM (inactive)"

[[record]]
compound = "COC(=O)C12C3C4C5(C(=O)OC)C(C1C35C(=O)N(C(C)C)C(C)C)C42C(=O)N(C(C)C)C(C)C (stereo not given)"
result = "> 50 µM (inactive)"

[[record]]
compound = "COC(=O)CC(c1ccccc1)C(C#N)(OP1(=O)OC(c2ccccc2)C(C)N1C)c1ccccc1 (stereo not given)"
result = "48 µM (inactive)"

[[record]]
compound = "O=C(CC(=O)N1N=C(N2c3ccccc3Sc3ccccc32)CC1c1ccccc1)Nc1ccccc1Cl (stereo not given)"
result = "> 100 µM (inactive)"

[[record]]
compound = "CN(C)CCCNC(=O)c1cc(NC(=O)CCCn2c3ccccc3c3ccccc32)cn1C"
result = "48.3 µM (inactive)"

[[record]]
compound = "COc1cc2c(cc1OC)C(=O)/C(=C/c1ccc(Cl)cc1)CC2"
result = "> 10 µM (inactive)"

[[record]]
compound = "Cn1c(=O)[nH]c2[nH]c3ccccc3c2c1=O"
result = "> 100 µM (inactive)"

[[record]]
compound = "O=C(c1ccccc1)[C@H]1Nc2ccc(Cl)cc2C2c3ccccc3CC21 (stereo not given in full)"
result = "53.8 µM (inactive)"

[[record]]
compound = "O1C2C1C1OC1C1OC1C1OC21 (stereo not given)"
result = "> 100 µM (inactive)"

[[record]]
compound = "CCOC(=O)CSc1nc(N)c2c(-c3ccccc3)c3c(nc2n1)CCCC3"
result = "> 100 µM (inactive)"

[[record]]
compound = "CN(C)CC1CN/C(=N\\C(=O)Nc2ccccc2)O1 (stereo not given)"
result = "> 100 µM (inactive)"

[[record]]
compound = "Nc1nc(-c2ccco2)cc(-c2ccc(CO)o2)n1"
result = "> 100 µM (inactive)"

[[record]]
compound = "CC(=O)OCC1OC(n2c(C)c(C)cc(C#N)c2=S)C(OC(C)=O)C(OC(C)=O)C1OC(C)=O (stereo not given)"
result = "> 100 µM (inactive)"

[[record]]
compound = "Nc1nc(O)nc2snnc12"
result = "5.71 µM (inactive)"

[[record]]
compound = "COP(=O)(OC)/C(=C\\c1cn(C(c2ccccc2)(c2ccccc2)c2ccccc2)cn1)NC(C)=O"
result = "> 100 µM (inactive)"

[[record]]
compound = "O=C(/C=C/c1ccccc1)Nc1ccccc1SCCCCl"
result = "16.5 µM (inactive)"

[[record]]
compound = "COc1cc2c(cc1OC)C1[C@@H](c3ccccc3)OCN1CC2 (stereo not given in full)"
result = "> 100 µM (inactive)"

[[record]]
compound = "CCCCCCCCCC(=O)CC(=O)c1c(O)cc(O)cc1O"
result = "17.3 µM (inactive)"

[[record]]
compound = "O=C1NCCCc2nonc21"
result = "> 100 µM (inactive)"

[[record]]
compound = "COc1ccc2c(c1)CCN1C3=C(CCC3)C(=O)C[C@@H]21"
result = "> 100 µM (inactive)"

[[record]]
compound = "Cc1n[n+](Cc2ccccc2)c2sc(N)nn12"
result = "> 100 µM (inactive)"

[[record]]
compound = "Cc1cccc(-n2c(C)nc3ccc(NC4OC(CO)C(O)C(O)C4O)cc3c2=O)c1 (stereo not given)"
result = "> 100 µM (inactive)"

[[record]]
compound = "N#Cc1c2c([nH]c(=O)c1C#N)CCCC2"
result = "> 100 µM (inactive)"

[[record]]
compound = "O=C(O)C(Sc1ccc(Cl)cc1)Sc1ccc(Cl)cc1"
result = "43.9 µM (inactive)"

[[record]]
compound = "CC(C)(Br)C(Br)CCC(C)(Br)C(Br)CO (stereo not given)"
result = "> 10 µM (inactive)"

[[record]]
compound = "O=P(O)(O)CCP(=O)(O)O"
result = "> 100 µM (inactive)"

[[record]]
compound = "CS(=O)(=O)c1cc(=O)c2ccccc2s1"
result = "2.93 µM (inactive)"

[[record]]
compound = "N#CC(C(=O)CCC(=O)Nc1ccc(Cl)cc1)c1ccccc1Cl (stereo not given)"
result = "> 100 µM (inactive)"

[[record]]
compound = "O=C1Cc2c([nH]c3ccc(Cl)cc23)-c2ccccc2N1"
result = "> 100 µM (inactive)"

[[record]]
compound = "O=C(CCc1ccc(O)cc1)NCCc1ccc(O)cc1"
result = "> 100 µM (inactive)"

[[record]]
compound = "O=C(O)CC(O)(c1ccccc1C(=O)O)c1cccc2ccccc12 (stereo not given)"
result = "> 100 µM (inactive)"

[[record]]
compound = "CN(C)CC1CCCC/C1=N/OC(=O)c1ccc(Cl)c(Cl)c1 (stereo not given)"
result = "> 100 µM (inactive)"

[[record]]
compound = "N=C(N)N/N=C(\\c1ccc(F)cc1)c1ccc(C(F)(F)F)cc1"
result = "0.376 µM (active)"

[[record]]
compound = "CC(=O)NNc1nc(C)c(C(=O)NNC(=O)C(=O)Nc2nc3ccc([N+](=O)[O-])cc3s2)s1"
result = "52.7 µM (inactive)"

[[record]]
compound = "COc1ccc(/C=C2/CCS(=O)(=O)c3ccc(C)cc3C2=O)cc1OC"
result = "12.3 µM (inactive)"

[[record]]
compound = "O=C(O)CCSC(=O)Nc1cccc([N+](=O)[O-])c1"
result = "> 100 µM (inactive)"

[[record]]
compound = "Cc1nn(C(=O)c2ccc(Cl)cc2)c2c1C(c1cccc([N+](=O)[O-])c1)SC(=N)N2 (stereo not given)"
result = "> 10 µM (inactive)"

[[record]]
compound = "CN(C)CN(C)c1nc(N(C)C)nc(N(C)C)n1"
result = "> 100 µM (inactive)"

[[record]]
compound = "O=[PH](O)c1ccsc1"
result = "> 100 µM (inactive)"

[[record]]
compound = "Cc1nnc2sc(Cc3cnc(N)s3)nn12"
result = "> 100 µM (inactive)"

[[record]]
compound = "O=C1c2ccccc2CCC1C(O)(C(F)(F)F)C(F)(F)F (stereo not given)"
result = "> 100 µM (inactive)"

[[record]]
compound = "N#Cc1nc(Cc2cccs2)oc1N"
result = "> 100 µM (inactive)"

[[record]]
compound = "O=C1C2C3C=CC(C2C(=O)N1COP(=O)(O)O)C1C2C(=O)N(COP(=O)(O)O)C(=O)C2C31 (stereo not given)"
result = "> 100 µM (inactive)"

[[record]]
compound = "CN(c1c(Cl)cccc1Cl)S(=O)(=O)c1ccccc1[N+](=O)[O-]"
result = "> 100 µM (inactive)"

[[record]]
compound = "CC(C)C1NC(=O)[C@H](C)OC(=O)[C@@H](C(C)C)NC(=O)[C@@H](C)OC(=O)C(C(C)C)NC(=O)[C@H](C)OC1=O (stereo not given in full)"
result = "> 100 µM (inactive)"

